# credit: PubChem BioAssay AID504332

Measurement target: Histone-lysine N-methyltransferase EHMT2 (Homo sapiens) (UniProt Q96KQ7)
Sequence (Q96KQ7 913-1193 limits assumed): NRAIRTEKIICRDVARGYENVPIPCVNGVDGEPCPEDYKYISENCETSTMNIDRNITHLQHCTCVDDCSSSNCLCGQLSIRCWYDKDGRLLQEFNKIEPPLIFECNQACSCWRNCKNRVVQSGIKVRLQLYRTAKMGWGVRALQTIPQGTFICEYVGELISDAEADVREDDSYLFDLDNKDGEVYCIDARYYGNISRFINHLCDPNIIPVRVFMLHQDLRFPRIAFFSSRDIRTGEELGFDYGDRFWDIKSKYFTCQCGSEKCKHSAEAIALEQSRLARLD
Assay comment: qHTS Assay for Inhibitors of Histone Lysine Methyltransferase G9a; also: nearly all actives have a fitted effect of over 75% in size
Condition context: G9a H3K9 monomethylation, AlphaScreen, 2 h; series mostly up to 59 µM
Among all 350,000 compounds or so, about 31,000 (8.9%) were called active. Not shown: some 15% with an inconclusive outcome. Calls follow the shape of the dose curve; as a rule, active = well fitted inhibition curve with a large enough effect; inconclusive = small, poorly fitted or top-dose-only effect; inactive = no such curve, though single readings can be large or run the other way. This excerpt belongs to a sample that is enriched for actives.
Outcome field: choose from active, inactive

## Task Tell me the assay call for COC(=O)Cn1cc(/C=C/[N+](=O)[O-])c2ccccc21 please.
## Result active

## Task Tell me the assay call for CCn1c(=O)cc(SCC(=O)NCc2ccc3c(c2)OCO3)c2ccccc21 please.
## Result inactive

## Task Tell me the assay call for CCOC(=O)c1c(SCC(=O)Nc2cccc(C)c2C)nc(=O)[nH]c1C please.
## Result inactive

## Task Tell me the assay call for CC(OC(=O)c1ccc(-n2cnnn2)cc1)C(=O)NCc1ccccc1 (stereo unspecified) please.
## Result inactive

## Task Tell me the assay call for Cc1ccc(/C=C2/SC(=S)N(CCC(=O)NCCCN3CCOCC3)C2=O)cc1 please.
## Result inactive

## Task Tell me the assay call for O=C(Nc1ccccc1Cl)N1CCC(CN2CCCCC2)CC1 please.
## Result inactive
